Each recorded value in this set is attributed to paper PMC10141580.

system: NCI-60 standardized human tumor cell line panel; test: cells; type: cell-based; conditions: cell line MALME-3M (ME:MALME-3M); TMI sheet
Some molecules, each annotated with its measured NCI-60 screening: Log(RedIndex).
No unit in the answer, only the number.

COc1cc2cc(C(=O)N3CC(CCl)c4c3cc(OC(=O)N3CCN(C)C5CSSCC53)c3ccccc43)[nH]c2c(OC)c1OC (mixture of isomers) [Me-SS66T-CBI-TMI]
2.06
COc1cc2cc(C(=O)N3C[C@@H](CCl)c4c3cc(OC(=O)N(CCC(=O)N3CCN(C)CC3)[C@H]3CCSSC3)c3ccccc43)[nH]c2c(OC)c1OC
0.75
COc1cc2cc(C(=O)N3C[C@@H](CCl)c4c3cc(OC(=O)N3CCN(C(=O)CCC(=O)N5CCN(C)CC5)[C@H]5CSSC[C@H]53)c3ccccc43)[nH]c2c(OC)c1OC [P-SS66C-CBI-TMI]
1.07

Entry COc1cc2cc(C(=O)N3CC(CCl)c4c3cc(OC(=O)N3CCN(C)C5CSSCC53)c3ccccc43)[nH]c2c(OC)c1OC (mixture of isomers) [Me-SS66C-CBI-TMI] ; NCI-60 screening: Log(RedIndex) = 0.87
